Tested on: CCRF-CEM
assayOverview: Cytotoxicity of the prodrug in human cells (CellTiter-Glo 2.0), CCRF-CEM
Assay type: cell-based
conditionDetails: 10 µM, versus untreated control; mean ± SD
For each entry below, report its Viability CCRF-CEM value.
One number for each entry, in % control.

Here are 3 molecules. What values of Viability CCRF-CEM were reported for them?
1. CCOC(=O)[C@H](Cc1ccccc1)NP(=O)(COCCC(OCCCO)n1ncc2c(=O)[nH]cnc21)N[C@@H](Cc1ccccc1)C(=O)OCC (some centres unmarked) [21g]
2. CCOC(=O)[C@H](Cc1ccccc1)NP(=O)(COCC(OCCO)n1cnc2c(=O)[nH]c(N)nc21)N[C@@H](Cc1ccccc1)C(=O)OCC (mixture of isomers) [21b]
3. CCOC(=O)[C@H](Cc1ccccc1)NP(=O)(CCOCC(OCCO)n1cnc2c(=O)[nH]c(N)nc21)N[C@@H](Cc1ccccc1)C(=O)OCC (some centres unmarked) [21d]

[out]
1. 105
2. 97
3. 99

----------
Test system: HL-60
assayOverview: Cytotoxicity of the prodrug in human cells (CellTiter-Glo 2.0), HL-60
Format: cell-based
conditionDetails: 10 µM, versus untreated control; mean ± SD
Experimental: Compound cytotoxicity was evaluated in nontumor human dermal fibroblasts (NHDF), CCRF‐CEM, HL‐60, HeLa, and HepG2 cells. All cell lines were obtained from ATCC (Manassas, VA, USA). The cytotoxicity was assayed using CellTiter‐Glo 2.0 detection reagent (Promega, Madison, USA) according to the manufacturer's protocol. The concentration of prodrug used in this assay was 10 μM. This concentration was chosen as it would more accurately reflect the expected concentration in an in vitro assessment.
Task for the reader: assign each of the following compounds its reported Viability HL-60.
Give bare numbers, in % control.

# count of solved cases: 2
Consider CCOC(=O)[C@H](Cc1ccccc1)NP(=O)(COCCC(OCCCO)n1cnc2c(=O)[nH]cnc21)N[C@@H](Cc1ccccc1)C(=O)OCC (some centres unmarked) [21e] . Its measured Viability HL-60 is 110

Measured Viability HL-60 of CCOC(=O)[C@H](Cc1ccccc1)NP(=O)(COCC(OCCO)n1cnc2c(=O)[nH]c(N)nc21)N[C@@H](Cc1ccccc1)C(=O)OCC (mixture of isomers) [21b] : 100

Consider the following items and state reported Viability HL-60 for each.
1. CCOC(=O)[C@H](Cc1ccccc1)NP(=O)(COCCC(OCCCO)n1cnc2c(=O)[nH]c(N)nc21)N[C@@H](Cc1ccccc1)C(=O)OCC (some centres unmarked) [21f]
2. CCOC(=O)[C@H](Cc1ccccc1)NP(=O)(COCC(OCCO)n1cnc2c(=O)[nH]cnc21)N[C@@H](Cc1ccccc1)C(=O)OCC (some centres unmarked) [21a]
3. CCOC(=O)[C@H](Cc1ccccc1)NP(=O)(CCOCC(OCCOCP(=O)(N[C@@H](Cc1ccccc1)C(=O)OCC)N[C@@H](Cc1ccccc1)C(=O)OCC)n1cnc2c(=O)[nH]cnc21)N[C@@H](Cc1ccccc1)C(=O)OCC (some centres unmarked) [19a]
4. CCOC(=O)[C@H](Cc1ccccc1)NP(=O)(CCOCC(OCCO)n1cnc2c(=O)[nH]cnc21)N[C@@H](Cc1ccccc1)C(=O)OCC (some centres unmarked) [21c]
5. CCOC(=O)[C@H](Cc1ccccc1)NP(=O)(COCCC(OCCCO)n1ncc2c(=O)[nH]cnc21)N[C@@H](Cc1ccccc1)C(=O)OCC (some centres unmarked) [21g]
6. CCOC(=O)[C@H](Cc1ccccc1)NP(=O)(CCOCC(OCCO)n1cnc2c(=O)[nH]c(N)nc21)N[C@@H](Cc1ccccc1)C(=O)OCC (some centres unmarked) [21d]

[out]
1. 105
2. 103
3. 112
4. 104
5. 107
6. 105

----------
Tested on: NHDF
assayOverview: Cytotoxicity of the prodrug in human cells (CellTiter-Glo 2.0), NHDF
Format: cell-based
conditionDetails: 10 µM, versus untreated control; mean ± SD
reportedProperty: Viability NHDF (% control)
Numbers only, in % control.

Example compounds with recorded Viability NHDF:
NHDF assay, compound CCOC(=O)[C@H](Cc1ccccc1)NP(=O)(CCOCC(OCCO)n1cnc2c(=O)[nH]c(N)nc21)N[C@@H](Cc1ccccc1)C(=O)OCC (stereo partly drawn) [21d] , recorded Viability NHDF = 112

NHDF assay, compound CCOC(=O)[C@H](Cc1ccccc1)NP(=O)(COCCC(OCCCO)n1cnc2c(=O)[nH]cnc21)N[C@@H](Cc1ccccc1)C(=O)OCC (stereo partly drawn) [21e] , recorded Viability NHDF = 110

More entries:
For the compound CCOC(=O)[C@H](Cc1ccccc1)NP(=O)(COCC(OCCO)n1cnc2c(=O)[nH]cnc21)N[C@@H](Cc1ccccc1)C(=O)OCC (stereo partly drawn) [21a] , the measured Viability NHDF on NHDF was 104

----------
System: CCRF-CEM
assayOverview: Cytotoxicity of the prodrug in human cells (CellTiter-Glo 2.0), CCRF-CEM
Format: cell-based
conditionDetails: 10 µM, versus untreated control; mean ± SD
reportedProperty: Viability CCRF-CEM (% control)
Numbers only, in % control.

Guide cases for Viability CCRF-CEM, answers given:
// recorded Viability CCRF-CEM for CCOC(=O)[C@H](Cc1ccccc1)NP(=O)(CCOCC(OCCO)n1cnc2c(=O)[nH]cnc21)N[C@@H](Cc1ccccc1)C(=O)OCC (some centres unmarked) [21c] : 100

The compound CCOC(=O)[C@H](Cc1ccccc1)NP(=O)(COCCC(OCCCO)n1cnc2c(=O)[nH]cnc21)N[C@@H](Cc1ccccc1)C(=O)OCC (some centres unmarked) [21e] showed Viability CCRF-CEM equal to 105

Sample CCOC(=O)[C@H](Cc1ccccc1)NP(=O)(CCOCC(OCCOCP(=O)(N[C@@H](Cc1ccccc1)C(=O)OCC)N[C@@H](Cc1ccccc1)C(=O)OCC)n1cnc2c(=O)[nH]cnc21)N[C@@H](Cc1ccccc1)C(=O)OCC (some centres unmarked) [19a] ; Viability CCRF-CEM observed: 106

CCOC(=O)[C@H](Cc1ccccc1)NP(=O)(COCCC(OCCCO)n1cnc2c(=O)[nH]c(N)nc21)N[C@@H](Cc1ccccc1)C(=O)OCC (some centres unmarked) [21f] yielded Viability CCRF-CEM of 103

Please turn your attention to the following entry.
Given item CCOC(=O)[C@H](Cc1ccccc1)NP(=O)(COCC(OCCO)n1cnc2c(=O)[nH]cnc21)N[C@@H](Cc1ccccc1)C(=O)OCC (some centres unmarked) [21a] , the value recorded as its Viability CCRF-CEM is 101
